Measured binding affinity ratio (IC50 of the standard peptide / IC50 of the test peptide) of individual entries
- MEASUREMENT_TARGET: HLA-A*0301 (human)
- PROTOCOL_DESCRIPTION: competition with 125I-labelled standard peptide for purified HLA-A*0301, gel filtration
MEASURED_QUANTITY: binding affinity ratio (IC50 of the standard peptide / IC50 of the test peptide)

# BINDER, READOUT_VALUE
measured = [
    ("CCRSSRTRR (modifications not checked) [HPV16 E6 position 146 peptide …]", 0.0003),
    ("AVCDKCLKFY (modifications not checked)", 0.0052),
    ("AVCDKCLK (modifications not checked) [HPV16 E6 position 68 peptide AVCDKCLK]", 0.0053),
    ("AVCDKCLKF (modifications not checked)", 0.0002),
    ("AFRDLCIVY (modifications not checked) [HPV16 E6 position 53 peptide …]", 0.0052),
    ("CMSCCRSSR (modifications not checked) [HPV16 E6 position 143 peptide …]", 0.0033),
]

Measured values drawn from patent US7026443 for this set.
